- TARGET ENTITY: HLA-DR DRB1*0701 (DR7) (Homo sapiens, UniProt P01903+P01911, A100R/A102G/A103Q/D57E/D86V/E43K/F76Y/K127E/L162R/M171V/P40G/Q125H/Q99D/R33Q/R42Y/R54Q/S133A/S66F/T210M/V115G/Y107V/Y59L/Y89S)
- METHOD SUMMARY: biochemical
- Type: binding
- EXPERIMENTAL CONTEXT: DRB1 *0701
ASSAY METRIC: pIC50
# pIC50 = -log10(concentration in molar units)

CC[C@H](C)[C@H](NC(=O)[C@H](CO)NC(=O)[C@H](CO)NC(=O)[C@H](CC(=O)O)NC(=O)[C@H](C)NC(=O)[C@H](CC(N)=O)NC(=O)[C@@H](NC(=O)[C@H](Cc1ccc(O)cc1)NC(=O)[C@H](C)NC(=O)[C@@H](NC(=O)CN)C(C)C)[C@@H](C)CC)C(=O)N[C@@H](CCC(=O)O)C(=O)NCC(=O)N[C@@H](CC(N)=O)C(=O)N[C@@H](Cc1ccc(O)cc1)C(=O)O | 5.20
CC(C)C[C@H](NC(=O)[C@H](CO)NC(=O)[C@H](CC(C)C)NC(=O)[C@H](CO)NC(=O)[C@H](C)NC(=O)[C@H](C)NC(=O)[C@H](CCCNC(=N)N)NC(=O)[C@H](C)NC(=O)[C@H](CC(C)C)NC(=O)[C@H](CC(C)C)NC(=O)[C@H](CC(C)C)NC(=O)[C@@H]1CCCN1C(=O)[C@H](C)N)C(=O)NCC(=O)N[C@@H](Cc1ccccc1)C(=O)O | 7.23

Give the measured pIC50 of "CC[C@H](C)[C@H](NC(=O)[C@H](CCCCN)NC(=O)[C@H](C)NC(=O)[C@@H]1CCCN1C(=O)[C@H](CCC(=O)O)NC(=O)[C@H](CO)NC(=O)[C@H](CC(C)C)NC(=O)[C@H](CCCNC(=N)N)NC(=O)[C@H](CC(C)C)NC(=O)[C@H](CC(C)C)NC(=O)[C@H](CCSC)NC(=O)[C@H](CC(C)C)NC(=O)[C@H](CC(=O)O)NC(=O)[C@@H](N)Cc1c[nH]cn1)C(=O)N[C@H](C(=O)O)[C@@H](C)O" . 6.96
